// provenance: BigSolDB 2.1

CONDITION_LABEL: in water, 308.16 K
MEASURED_METRIC: solubility (mole fraction)
// response body must contain only the number

I'd like to know its solubility (mole fraction). The molecule in question is COc1cc(-c2cc(=O)c3c(O)cc(O)cc3o2)cc(OC)c1O
3.5e-09

---

CONDITION_LABEL: in ethanol, 303.15 K
MEASURED_METRIC: solubility (mole fraction)
// response body must contain only the number

I'd like to know its solubility (mole fraction). The compound in question is COc1cc(-c2cc(=O)c3c(O)cc(O)cc3o2)cc(OC)c1O
1.72e-05

---

CONDITION_LABEL: in ethanol, 313.18 K
MEASURED_METRIC: solubility (mole fraction)

I'd like to know its solubility (mole fraction). The compound in question is COc1cc(-c2cc(=O)c3c(O)cc(O)cc3o2)cc(OC)c1O
3e-05
